# Target under test: cyclophilin A (Homo sapiens)
Readout label: IC50

- Compound: "CO[C@@H]1[C@@H](C)[C@@H](OC)/C=C/c2cccc(c2)COC(=O)[C@@H]2CCCN(N2)C(=O)[C@H](Cc2cccc(O)c2)NC(=O)[C@H](C(C)C)NC(=O)[C@@H]1C [Compound 5]"
  IC50: "< 100 nM"
- Compound: "CO[C@@H]1CC/C=C/c2cccc(c2)[C@@H](C)OC(=O)[C@@H]2CCCN(N2)C(=O)[C@H](Cc2cccc(O)c2)NC(=O)[C@H](C(C)C)NC(=O)C1 [Compound 22]"
  IC50: "< 100 nM"
- Compound: "COc1ccc(C[C@@H]2NC(=O)[C@H](C)[C@H](OC)[C@@H](C)[C@@H](OC)/C=C/C=C/CCOC(=O)[C@@H]3CCCN(N3)C(=O)[C@H](Cc3cccc(O)c3)NC2=O)cc1 [Compound 21]"
  IC50: "101 to 1000 nM"
- Compound: "CO[C@@H]1CCCCc2cccc(c2)[C@@H](C)OC(=O)[C@@H]2CCCN(N2)C(=O)[C@H](Cc2cccc(O)c2)NC(=O)[C@H](C(C)C)NC(=O)[C@@H]1C [Compound 20]"
  IC50: "< 100 nM"

Consider the compound CC(C)[C@@H]1NC(=O)[C@H](C)[C@H](O)c2ccc(cc2)CCCCOC(=O)[C@@H]2CCCN(N2)C(=O)[C@H](Cc2cccc(O)c2)NC1=O [Compound 9] and give its measured IC50.
1000 to 10000 nM

====

# Target under test: cyclophilin A (Homo sapiens, UniProt P62937)
# Sequence (P62937 whole entry, species assumed): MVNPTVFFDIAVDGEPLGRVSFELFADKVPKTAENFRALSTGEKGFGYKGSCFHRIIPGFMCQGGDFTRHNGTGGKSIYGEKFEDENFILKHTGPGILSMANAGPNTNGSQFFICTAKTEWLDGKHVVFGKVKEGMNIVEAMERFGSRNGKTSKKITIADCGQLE
pIC50: −log10 of the molar value.
Readout label: pIC50

Recorded results for 5 molecules are shown here.
- Molecule: "CO[C@@H]1CC/C=C/c2cc(ccn2)COC(=O)[C@@H]2CCCN(N2)C(=O)[C@H](Cc2cccc(O)c2)NC(=O)[C@H](C(C)C)NC(=O)[C@@H]1C [Compound 18]"
  Val: "> 7.00"
- Molecule: "CO[C@@H]1CC/C=C/CCCCOC(=O)[C@@H]2CCCN(N2)C(=O)[C@H](Cc2cccc(O)c2)NC(=O)[C@H](C(C)C)NC(=O)[C@@H]1C [Compound 23]"
  Val: "6.00 to 7.00"
- Molecule: "CCO[C@@H]1CC/C=C/c2cccc(c2)COC(=O)[C@@H]2CCCN(N2)C(=O)[C@H](Cc2cccc(O)c2)NC(=O)[C@H](C(C)C)NC(=O)[C@@H]1C [Compound 24]"
  Val: "> 7.00"
- Molecule: "CO[C@@H]1CC/C=C/c2cccc(c2)[C@@H](C)NC(=O)[C@@H]2CCCN(N2)C(=O)[C@H](Cc2cccc(O)c2)NC(=O)[C@H](C(C)C)NC(=O)[C@@H]1C [Compound 16]"
  Val: "> 7.00"
- Molecule: "CC(C)[C@@H]1NC(=O)[C@H](C)[C@H](O)c2ccc(cc2)/C=C/CCOC(=O)[C@@H]2CCCN(N2)C(=O)[C@H](Cc2cccc(O)c2)NC1=O [Compound 8]"
  Val: "6.00 to 7.00"

From here, focus on the item given below.
Lab note: need pIC50 with cyclophilin A (Homo sapiens, UniProt P62937) for entry CO[C@@H]1CC/C=C/c2ccnc(c2)COC(=O)[C@@H]2CCCN(N2)C(=O)[C@H](Cc2cccc(O)c2)NC(=O)[C@H](C(C)C)NC(=O)[C@@H]1C [Compound 17] , please look it up.
> 7.00
